Tested on: NCI-H1755 (Lung Adenocarcinoma)
Test: Bliss excess, mean over the matrix (fraction); higher = more synergy
I'd be grateful if you could share measured Bliss excess for these entries.
Lab note: jot down the number only; don't add units.

q: Given the entry CC1(C)CCC(CN2CCN(c3ccc(C(=O)NS(=O)(=O)c4ccc(NCC5CCOCC5)c([N+](=O)[O-])c4)c(Oc4cnc5[nH]ccc5c4)c3)CC2)=C(c2ccc(Cl)cc2)C1 [Venetoclax] + C1CN(CCC1(C(=O)N[C@@H](CCO)C2=CC=C(C=C2)Cl)N)C3=NC=NC4=C3C=CN4 [Capivasertib] (first compound max 1 µM, 7x7, partner max 3 µM) , report its measured Bliss excess.
a: -0.034

q: Same question, C=CCn1c(=O)c2cnc(Nc3ccc(N4CCN(C)CC4)cc3)nc2n1-c1cccc(C(C)(C)O)n1 [AZD1775] + Nc1ccn([C@@H]2O[C@H](CO)[C@@H](O)C2(F)F)c(=O)n1 [Gemcitabine] (first compound max 1 µM, partner max 0.3 µM) this time
a: 0.0304

q: Same question, CC(=O)Nc1cccc(-n2c(=O)n(C3CC3)c(=O)c3c(Nc4ccc(I)cc4F)n(C)c(=O)c(C)c32)c1 [Trametinib] + Cc1nc(-c2cn3c(n2)-c2ccc(-c4cnn(C(C)(C)C(N)=O)c4)cc2OCC3)n(C(C)C)n1 [Taselisib] (first compound max 1 µM, 7x7, partner max 10 µM) this time
a: 0.115

###

System: RL95-2 (Endometrial Carcinoma)
Assay: combination Emax (second highest fraction inhibited in the dose matrix, 72 h); higher = more inhibition; extreme values may be limits of the assay
I'd be grateful if you could share measured combination Emax for these entries.
Lab note: jot down the number only; don't add units.

q: Hello, I am looking for reported combination Emax with RL95-2 (Endometrial Carcinoma) for C=CCn1c(=O)c2cnc(Nc3ccc(N4CCN(C)CC4)cc3)nc2n1-c1cccc(C(C)(C)O)n1 [AZD1775] + C[C@@H]1COCCN1C2=NC(=NC(=C2)C3(CC3)[S@](=N)(=O)C)C4=C5C=CNC5=NC=C4 [AZD6738] (first compound max 1 µM, partner max 10 µM) . Could you help?
a: 0.914

q: Same question, COc1nnc2ccc(N3CCC(c4ccc(OCCN5CCN(C)C(=O)[C@H]5C)cc4)CC3)nn12 [AZD5153] + Cn1cnc2c(F)c(Nc3ccc(Br)cc3Cl)c(C(=O)NOCCO)cc21 [Selumetinib] (first compound max 1 µM, 7x7, partner max 10 µM) this time
a: 0.66

q: Same question, COc1cccc(OCCCN)c1-c1cc(Nc2cnc(C#N)cn2)n[nH]1 [Prexasertib] + O=C(c1cc(Cc2n[nH]c(=O)c3ccccc23)ccc1F)N1CCN(C(=O)C2CC2)CC1 [Olaparib] (first compound max 1 µM, 7x7, partner max 10 µM) this time
a: 0.882

q: Same question, C=CCn1c(=O)c2cnc(Nc3ccc(N4CCN(C)CC4)cc3)nc2n1-c1cccc(C(C)(C)O)n1 [AZD1775] + O=C(c1cc(Cc2n[nH]c(=O)c3ccccc23)ccc1F)N1CCN(C(=O)C2CC2)CC1 [Olaparib] (first compound max 1 µM, partner max 10 µM) this time
a: 0.486

q: Same question, COc1nnc2ccc(N3CCC(c4ccc(OCCN5CCN(C)C(=O)[C@H]5C)cc4)CC3)nn12 [AZD5153] + CC1(C)CCC(CN2CCN(c3ccc(C(=O)NS(=O)(=O)c4ccc(NCC5CCOCC5)c([N+](=O)[O-])c4)c(Oc4cnc5[nH]ccc5c4)c3)CC2)=C(c2ccc(Cl)cc2)C1 [Venetoclax] (first compound max 1 µM, 7x7, partner max 1 µM) this time
a: 0.426

q: Same question, Cc1c2c(nn1C)CSCc1cc(n(C)n1)CSc1cc(c3ccccc3c1)OCCCc1c(C(=O)O)n(C)c3c-2c(Cl)ccc13 [AZD5991] + CCN(CCO)CCCOc1ccc2c(Nc3cc(CC(=O)Nc4cccc(F)c4)[nH]n3)ncnc2c1 [AZD2811] (first compound max 1 µM, 7x7, partner max 1 µM) this time
a: 1

q: Same question, COc1nnc2ccc(N3CCC(c4ccc(OCCN5CCN(C)C(=O)[C@H]5C)cc4)CC3)nn12 [AZD5153] + C[C@@H]1COCCN1C2=NC(=NC(=C2)C3(CC3)[S@](=N)(=O)C)C4=C5C=CNC5=NC=C4 [AZD6738] (first compound max 1 µM, 7x7, partner max 10 µM) this time
a: 0.733

###

I'd be grateful if you could share measured combination Emax for these entries.
System: NKM-1 (Acute Myeloid Leukemia)
Assay: combination Emax (second highest fraction inhibited in the dose matrix, 72 h); higher = more inhibition; extreme values may be limits of the assay
Lab note: jot down the number only; don't add units.

q: Hello, I am looking for reported combination Emax with NKM-1 (Acute Myeloid Leukemia) for CCc1c2c(nc3ccc(O)cc13)-c1cc3c(c(=O)n1C2)COC(=O)[C@]3(O)CC [SN-38] + CN(C)CCCOc1ccc(-c2ccc3ncc4c(c3c2)n(C2CCOCC2)c(=O)n4C)cn1 [AZD0156] (first compound max 0.3 µM, 7x7, partner max 1 µM) . Could you help?
a: 0.973

q: Same question, COc1nnc2ccc(N3CCC(c4ccc(OCCN5CCN(C)C(=O)[C@H]5C)cc4)CC3)nn12 [AZD5153] + CC1(C)CCC(CN2CCN(c3ccc(C(=O)NS(=O)(=O)c4ccc(NCC5CCOCC5)c([N+](=O)[O-])c4)c(Oc4cnc5[nH]ccc5c4)c3)CC2)=C(c2ccc(Cl)cc2)C1 [Venetoclax] (first compound max 1 µM, 7x7, partner max 1 µM) this time
a: 0.978

###

I'd be grateful if you could share measured Bliss excess for these entries.
Tested on: OVTOKO (Ovarian Carcinoma)
Assay: Bliss excess, mean over the matrix (fraction); higher = more synergy
Lab note: jot down the number only; don't add units.

q: Given the entry CN(CCO)CC[C@H](CSc1ccccc1)Nc1ccc(S(=O)(=O)NC(=O)c2ccc(N3CCC([C@@H](O)c4ccccc4-c4ccc(Cl)cc4)CC3)cc2)cc1S(=O)(=O)C(F)(F)F [AZD4320] + C1CN(CCC1(C(=O)N[C@@H](CCO)C2=CC=C(C=C2)Cl)N)C3=NC=NC4=C3C=CN4 [Capivasertib] (first compound max 1 µM, 7x7, partner max 3 µM) , report its measured Bliss excess.
a: -0.0381

q: Same question, CC1(C)CCC(CN2CCN(c3ccc(C(=O)NS(=O)(=O)c4ccc(NCC5CCOCC5)c([N+](=O)[O-])c4)c(Oc4cnc5[nH]ccc5c4)c3)CC2)=C(c2ccc(Cl)cc2)C1 [Venetoclax] + C[C@@H]1COCCN1C2=NC(=NC(=C2)C3(CC3)[S@](=N)(=O)C)C4=C5C=CNC5=NC=C4 [AZD6738] (first compound max 1 µM, 7x7, partner max 10 µM) this time
a: -0.0395

q: Same question, COc1cccc(OCCCN)c1-c1cc(Nc2cnc(C#N)cn2)n[nH]1 [Prexasertib] + CN(C)CCCOc1ccc(-c2ccc3ncc4c(c3c2)n(C2CCOCC2)c(=O)n4C)cn1 [AZD0156] (first compound max 1 µM, 7x7, partner max 1 µM) this time
a: 0.0594

###

Test system: LOUCY (T-Lymphoblastic Leukemia)
Experiment: Bliss excess, mean over the matrix (fraction); higher = more synergy
I'd be grateful if you could share measured Bliss excess for these entries.
Lab note: jot down the number only; don't add units.

q: Given the entry CC1(C)CCC(CN2CCN(c3ccc(C(=O)NS(=O)(=O)c4ccc(NCC5CCOCC5)c([N+](=O)[O-])c4)c(Oc4cnc5[nH]ccc5c4)c3)CC2)=C(c2ccc(Cl)cc2)C1 [Venetoclax] + CN(C)CCCOc1ccc(-c2ccc3ncc4c(c3c2)n(C2CCOCC2)c(=O)n4C)cn1 [AZD0156] (first compound max 1 µM, 7x7, partner max 1 µM) , report its measured Bliss excess.
a: 0.0594

q: Same question, COc1nnc2ccc(N3CCC(c4ccc(OCCN5CCN(C)C(=O)[C@H]5C)cc4)CC3)nn12 [AZD5153] + CC1(C)CCC(CN2CCN(c3ccc(C(=O)NS(=O)(=O)c4ccc(NCC5CCOCC5)c([N+](=O)[O-])c4)c(Oc4cnc5[nH]ccc5c4)c3)CC2)=C(c2ccc(Cl)cc2)C1 [Venetoclax] (first compound max 1 µM, 7x7, partner max 1 µM) this time
a: 0.0241

q: Same question, CN(C)CCCOc1ccc(-c2ccc3ncc4c(c3c2)n(C2CCOCC2)c(=O)n4C)cn1 [AZD0156] + O=C(c1cc(Cc2n[nH]c(=O)c3ccccc23)ccc1F)N1CCN(C(=O)C2CC2)CC1 [Olaparib] (first compound max 3 µM, partner max 3 µM) this time
a: 0.125

###

Tested on: Becker (Low Grade Glioma)
Assay: Bliss excess, mean over the matrix (fraction); higher = more synergy
Cut-off 0.04 on Bliss excess, inclusive. At or above means criterion met; below means criterion not met.

q: Reported Bliss excess reaches at least 0.04 for C[C@@H](Oc1cc(-c2cnn(C3CCNCC3)c2)cnc1N)c1c(Cl)ccc(F)c1Cl [Crizotinib] + CC1=C(C(=CC=C1)Cl)NC(=O)C2=CN=C(S2)NC3=CC(=NC(=N3)C)N4CCN(CC4)CCO [Dasatinib] (first compound max 10 µM, 7x7, partner max 2 µM) ?
a: criterion met

q: Same question, Cc1cc2ncnn2cc1Nc1ncc2c(n1)n(C1CCOCC1)c(=O)n2C [AZD7648] + O=C(c1cc(Cc2n[nH]c(=O)c3ccccc23)ccc1F)N1CCN(C(=O)C2CC2)CC1 [Olaparib] (first compound max 10 µM, 7x7, partner max 10 µM) this time
a: criterion not met

q: Same question, COc1cccc(OCCCN)c1-c1cc(Nc2cnc(C#N)cn2)n[nH]1 [Prexasertib] + CCc1c2c(nc3ccc(O)cc13)-c1cc3c(c(=O)n1C2)COC(=O)[C@]3(O)CC [SN-38] (first compound max 1 µM, 7x7, partner max 0.3 µM) this time
a: criterion not met

q: Same question, C[C@@H](c1ccc2nccn2c1)n1nnc2ncc(-c3cnn(C)c3)nc21 [Savolitinib] + CC1(C)CCC(CN2CCN(c3ccc(C(=O)NS(=O)(=O)c4ccc(NCC5CCOCC5)c([N+](=O)[O-])c4)c(Oc4cnc5[nH]ccc5c4)c3)CC2)=C(c2ccc(Cl)cc2)C1 [Venetoclax] (first compound max 1 µM, 7x7, partner max 1 µM) this time
a: criterion not met

q: Same question, CCc1c2c(nc3ccc(O)cc13)-c1cc3c(c(=O)n1C2)COC(=O)[C@]3(O)CC [SN-38] + CN(C)CCCOc1ccc(-c2ccc3ncc4c(c3c2)n(C2CCOCC2)c(=O)n4C)cn1 [AZD0156] (first compound max 0.3 µM, 7x7, partner max 1 µM) this time
a: criterion not met

q: Same question, Cc1nc(-c2cn3c(n2)-c2ccc(-c4cnn(C(C)(C)C(N)=O)c4)cc2OCC3)n(C(C)C)n1 [Taselisib] + O=C(Nc1ccc2[nH]nc(-c3ccncc3)c2c1)[C@@H]1CCN(CC(=O)N2CCN(c3ccc(-c4ncccn4)cc3)CC2)C1 [SCH772984] (first compound max 10 µM, 7x7, partner max 5 µM) this time
a: criterion met
